Literature pIC50 values, system: ROCK2 (Homo sapiens, UniProt O75116).
Sequence (O75116 whole entry, looked up): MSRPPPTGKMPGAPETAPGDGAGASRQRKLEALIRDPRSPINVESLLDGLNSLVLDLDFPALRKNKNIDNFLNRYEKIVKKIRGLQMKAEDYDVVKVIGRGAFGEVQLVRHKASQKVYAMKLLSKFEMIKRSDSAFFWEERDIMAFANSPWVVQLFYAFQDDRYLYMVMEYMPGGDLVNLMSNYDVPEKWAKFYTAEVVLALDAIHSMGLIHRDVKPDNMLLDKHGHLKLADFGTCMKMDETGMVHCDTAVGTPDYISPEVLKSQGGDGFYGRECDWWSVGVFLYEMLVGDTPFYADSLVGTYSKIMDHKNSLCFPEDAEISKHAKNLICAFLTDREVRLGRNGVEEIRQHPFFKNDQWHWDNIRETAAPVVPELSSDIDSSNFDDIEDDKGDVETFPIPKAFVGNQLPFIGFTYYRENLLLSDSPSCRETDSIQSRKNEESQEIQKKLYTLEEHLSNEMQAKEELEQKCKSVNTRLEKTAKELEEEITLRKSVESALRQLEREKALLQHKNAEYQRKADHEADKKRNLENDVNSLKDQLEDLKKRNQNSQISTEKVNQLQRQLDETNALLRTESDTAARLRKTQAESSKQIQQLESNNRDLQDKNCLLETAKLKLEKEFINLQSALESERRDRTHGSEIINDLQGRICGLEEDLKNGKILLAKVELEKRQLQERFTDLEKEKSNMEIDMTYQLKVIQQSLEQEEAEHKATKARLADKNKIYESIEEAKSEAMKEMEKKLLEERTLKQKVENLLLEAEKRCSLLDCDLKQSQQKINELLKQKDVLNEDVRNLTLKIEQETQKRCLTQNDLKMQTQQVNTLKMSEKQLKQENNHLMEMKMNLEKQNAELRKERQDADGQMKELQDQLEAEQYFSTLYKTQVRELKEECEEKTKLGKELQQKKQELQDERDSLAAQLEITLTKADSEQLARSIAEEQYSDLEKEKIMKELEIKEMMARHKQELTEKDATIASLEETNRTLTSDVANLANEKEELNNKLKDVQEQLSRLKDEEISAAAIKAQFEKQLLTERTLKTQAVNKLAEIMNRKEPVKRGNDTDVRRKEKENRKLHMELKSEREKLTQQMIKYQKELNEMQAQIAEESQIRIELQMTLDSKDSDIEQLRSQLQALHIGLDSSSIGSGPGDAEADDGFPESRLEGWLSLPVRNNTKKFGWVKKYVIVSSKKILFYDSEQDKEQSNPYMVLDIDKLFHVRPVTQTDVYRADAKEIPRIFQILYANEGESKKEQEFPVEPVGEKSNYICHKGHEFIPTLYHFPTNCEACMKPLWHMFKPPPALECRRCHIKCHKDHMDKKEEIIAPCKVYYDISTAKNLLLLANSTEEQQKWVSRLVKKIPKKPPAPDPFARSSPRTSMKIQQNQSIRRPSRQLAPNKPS
One number for each entry, as −log10 of the molar value.

C[C@H](c1cccc(C(=O)NC2CCCC2)c1)N(CCN(C)C)C(=O)c1ccc(-c2ccncc2)cc1 ... 9.64
COc1cc(C(=O)NC2(c3ccccc3Cl)CC2)ccc1-c1cn[nH]c1 ... 8.33
[H][C@]1(Oc2ncccc2C(N)=O)C[C@]2(C[C@@H](Nc3nccc(-c4cccc(C#N)c4)n3)C2)C1 (stereo partly shown) ... 7.06
Cn1nc(NC(=O)Cc2ccc(Oc3ncccc3C(N)=O)c(Cl)c2)c2cccnc21 ... 6.80
Cc1n[nH]cc1-c1cc(OCCN(C)C)c(C(=O)N[C@H](C)c2ccccc2)cc1F ... 6.11
COc1cccc(CCNC(=O)c2ccc(-c3cn[nH]c3)c(OC)c2)c1 ... 7.22

For every item in the list below, what is its measured pIC50?
1. COc1cccc(CNC(=O)c2ccc(-c3cn[nH]c3)cc2OC)c1
2. O=C(C1CC(F)(F)C1)N1Cc2ccc(-c3nccc(Nc4ccc5c(=O)[nH]ccc5c4)n3)cc2C1
3. CCCC(C)CC1NC(=O)N([C@H]2C[C@@]3(C[C@H](Oc4ncccc4C(N)=O)C3)C2)C1=O (stereo partly shown)

8.32
7.77
7.85
